So I've got a bunch of molecules here, and I need their pIC50 values.
Biological target: mPGES-1 (Homo sapiens)
Assay: mPGES-1 enzyme assay (HTRF detection of PGE2)
Format: biochemical
Parameters: made in house; host or cells: Rosetta E. coli (membrane/microsome fraction)
Conditions: recombinant human mPGES-1 microsomes, PGH2 2 μM, Table A; read-out: mPGES-1 inhibitory effect, IC50, enzyme assay
Numbers only, as −log10 of the molar value.

CC(C)(C)C(=O)NCc1ccc(Cl)c(Nc2nc3cc(C(=O)N[C@H]4CC[C@H](C(F)(F)F)CC4)c(N4CC[C@@H](F)C4)nc3[nH]2)c1Cl [Example 7] ... 8.40

Record pIC50 per entry; entries follow.
1. Cn1c(Nc2c(Cl)ccc(CNC(=O)C(C)(C)C)c2Cl)nc2cc(C(=O)NC3(c4ccc(F)cc4)CC3)c(N3CCC(C(F)(F)F)CC3)nc21 [Example 37]
2. Cn1c(Nc2c(Cl)ccc(CNC(=O)C(C)(C)C)c2Cl)nc2cc(C(=O)N[C@H]3CC[C@H](C(F)(F)F)CC3)c(N(CC3CC3)C3CC3)nc21 [Example 23]
3. Cn1c(Nc2c(Cl)ccc(CNC(=O)C(C)(C)C)c2Cl)nc2cc(C(=O)N[C@H]3CC[C@H](C(F)(F)F)CC3)c(N3CCC(C(F)(F)F)CC3)nc21 [Example 30]

A)
1: 8.52; 2: 9.00; 3: 8.52

----------
Target: mPGES-1 (Homo sapiens)
Assay: mPGES-1 enzyme assay (HTRF detection of PGE2)
Assay type: biochemical
Design: made in house; host or cells: Rosetta E. coli (membrane/microsome fraction)
Conditions: Table C comparison of enzym and cell IC50; read-out: Enzym IC50
So I've got a bunch of compounds here, and I need their pIC50 values.
Answers are plain numbers, as −log10 of the molar value.

Record pIC50 per entry; entries follow.
1. Cn1c(Nc2cc(CNC(=O)C(C)(C)C)ccc2Cl)nc2cc(C(=O)N[C@H]3CC[C@H](C(F)(F)F)CC3)c(OCC(F)(F)F)cc21 [reference compound]
2. Cn1c(Nc2cc(CNC(=O)C3(C(F)(F)F)CC3)ccc2Cl)nc2cc(C(=O)Nc3ccc(F)c(Cl)c3)c(OCC(F)F)cc21 [reference compound]
3. Cn1c(Nc2c(Cl)cc(F)cc2Cl)nc2cc(C(=O)N[C@H]3CC[C@H](C(F)(F)F)CC3)c(OCC(F)F)nc21 [reference compound]

A)
1. 8.10
2. 9.00
3. 8.40

Record pIC50 per entry; entries follow.
1. O=C(N[C@H]1CC[C@H](C(F)(F)F)CC1)c1cc2nc(Nc3c(Cl)cc(F)cc3Cl)[nH]c2nc1OCC(F)(F)F [reference compound]
2. Cn1c(Nc2c(F)cccc2Cl)nc2cc(C(=O)Nc3ccc(Br)cc3)c(OCC(F)F)nc21 [reference compound]

A)
1. 8.70
2. 8.70

----------
So I've got a bunch of compounds here, and I need their IC50 values.
Molecular target: mPGES-1 (Homo sapiens)
Sequence (O14684 1-152): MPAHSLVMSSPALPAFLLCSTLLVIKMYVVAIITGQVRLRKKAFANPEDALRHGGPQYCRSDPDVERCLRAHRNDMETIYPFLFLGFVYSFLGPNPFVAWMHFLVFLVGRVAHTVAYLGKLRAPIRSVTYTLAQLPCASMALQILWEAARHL
Test: mPGES-1 enzyme assay (HTRF detection of PGE2)
Format: biochemical
Design: made in house; host or cells: Rosetta E. coli (membrane/microsome fraction)
Conditions: recombinant human mPGES-1 microsomes, PGH2 2 μM, Table A; read-out: mPGES-1 inhibitory effect, IC50, enzyme assay
Procedure: Microsomes from Rosetta E. coli bacteria expressing recombinant human mPGES-1 can be derived as described below: Inoculate 5 ml LB with Ampicilin (50 μg/ml) and Chloramphenicol (34 μg/ml) with bacteria from freeze culture. […] The fluorescence of Europium cryptate (maxex=307 nm, maxem=620 nm) and d2-PGE2 (maxex=620 nm, maxem=665 nm) are measured. The extent of the specific HTRF is measured as a ratio of the emission intensity at 665 nm vs. that at 620 nm at an excitation puls of 320 nm. […]

Examples from the recorded data:
Cn1c(Nc2c(Cl)ccc(CNC(=O)C(C)(C)C)c2Cl)nc2cc(C(=O)Nc3cccc(C(F)(F)F)n3)c(N3CCC(C(F)(F)F)CC3)nc21 [Example 44] ... 4 nM
CN(CC1(C)COC1)c1nc2c(cc1C(=O)N[C@H]1CC[C@H](C(F)(F)F)CC1)nc(Nc1c(Cl)ccc(CNC(=O)C(C)(C)C)c1Cl)n2C [Example 22] ... 3 nM
CN(CC(F)F)c1nc2[nH]c(Nc3c(Cl)ccc(CNC(=O)C(C)(C)C)c3Cl)nc2cc1C(=O)N[C@H]1CC[C@H](C(F)(F)F)CC1 [Example 4] ... 1 nM
Cn1c(Nc2c(Cl)ccc(CNC(=O)C(C)(C)C)c2Cl)nc2cc(C(=O)NC3CC(F)(F)C3)c(N3CCC(C(F)(F)F)CC3)nc21 [Example 35] ... 5 nM
Cn1c(Nc2c(Cl)ccc(CNC(=O)C(C)(C)C)c2Cl)nc2cc(C(=O)NCc3ccc(F)cc3C(F)(F)F)c(N3CCC(C(F)(F)F)CC3)nc21 [Example 38] ... 2 nM

Q) // IC50 lookup, key: CC(NC(=O)c1cc2nc(Nc3c(Cl)ccc(CNC(=O)C(C)(C)C)c3Cl)n(C)c2nc1N1CCC(C(F)(F)F)CC1)C(F)(F)F (stereo not drawn) [Example 31]
A) 3 nM
